biological target: KRAS G12V (Homo sapiens (Human), UniProt P01116, G12V); assay: KRAS G12V degradation in SW620 cells (Western blot, DC50); assay type: cell-based; conditions: 24 hours
Sequence (P01116-2 other isoform, or with tags, fused parts or gaps G12V): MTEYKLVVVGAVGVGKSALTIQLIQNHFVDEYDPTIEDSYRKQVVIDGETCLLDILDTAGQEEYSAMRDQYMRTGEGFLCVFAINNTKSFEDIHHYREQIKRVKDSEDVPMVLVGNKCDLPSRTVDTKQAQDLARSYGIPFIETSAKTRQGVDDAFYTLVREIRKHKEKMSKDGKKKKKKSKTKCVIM
ATTRIBUTE_MEASURED: DC50

>>> result("CCc1c(F)ccc2cc(O)cc(-c3ncc4c(N5CCC[C@@](C)(O)C5)nc(OCC5(CN6CCC(F)(CN7CCN(c8ccc9c(c8)CN([C@H]8CCC(=O)NC8=O)C9=O)CC7)CC6)CC5)nc4c3F)c12")
"< 1 nM"
>>> result("Cc1nc(N)cc(-c2ncc3c(N4CCC[C@@](C)(O)C4)nc(OCC4(CN5CCC6(CC5)CC(CN5CCN(c7ccc8c(c7)CN([C@H]7CCC(=O)NC7=O)C8=O)CC5)C6)CC4)nc3c2F)c1C(F)(F)F")
"> 100 nM"

# context switch: different compound, same DC50
response.value for CCc1c(F)ccc2cc(O)cc(-c3ncc4c(N5CCCC6(CCO6)C5)nc(OCC5(CN6CCC(CN7CCN(c8ccc9c(c8)CN(C8CCC(=O)NC8=O)C9=O)CC7)CC6)CC5)nc4c3F)c12 (stereo not drawn) (field: DC50) = 1 to 10 nM

----------
biological target: KRAS G12V (Homo sapiens (Human), UniProt P01116, G12V); experiment: KRAS G12V degradation in SW620 cells (Western blot, DC50); format: cell-based; conditions: 24 hours
ATTRIBUTE_MEASURED: DC50

Check out these entries, answers already filled in.
>>> result("CCc1c(F)ccc2cc(O)cc(-c3ncc4c(N5CCC[C@]6(CCO6)C5)nc(OCC5(CN6CCC7(CCC(N8CCN(c9ccc%10c(c9)CN([C@H]9CCC(=O)NC9=O)C%10=O)CC8)CC7)CC6)CC5)nc4c3F)c12")
"< 1 nM"
>>> result("CCc1c(F)ccc2cc(O)cc(-c3ncc4c(N5CCCn6nc(C(=O)N(C)C)c(Cl)c6C5)nc(OCC5(CN6CCC7(CC6)CC(CN6CCN(c8ccc9c(c8)CN([C@H]8CCC(=O)NC8=O)C9=O)CC6)C7)CC5)nc4c3F)c12")
"1 to 10 nM"
>>> result("CCc1cccc2cc(O)cc(-c3ncc4c(N5CCC[C@@](C)(O)C5)nc(OCC5(CN6CC7(CCC(N8CCN(c9ccc%10c(c9)CN([C@H]9CCC(=O)NC9=O)C%10=O)CC8)CC7)C6)CC5)nc4c3F)c12 [Compound 141]")
"> 100 nM"

response.value for CCc1c(F)ccc2cc(O)cc(-c3ncc4c(N5CCOC[C@](C)(O)C5)nc(OCC5(CN6CCC7(CC6)CC(CN6CCN(c8ccc9c(c8)CN([C@H]8CCC(=O)NC8=O)C9=O)CC6)C7)CC5)nc4c3F)c12 (field: DC50) = > 100 nM

----------
biological target: KRAS-G12V/RAF1 (Homo sapiens (Human), UniProt P01116, G12V); experiment: KRAS/RAF1 binding inhibition assay (AlphaScreen)
Sequence (P01116-2 other isoform, or with tags, fused parts or gaps G12V): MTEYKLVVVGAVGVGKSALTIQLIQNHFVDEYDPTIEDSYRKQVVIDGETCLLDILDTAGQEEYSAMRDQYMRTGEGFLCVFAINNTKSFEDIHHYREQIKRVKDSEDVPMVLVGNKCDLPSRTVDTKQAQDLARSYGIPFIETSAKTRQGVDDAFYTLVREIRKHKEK
Below, each entry is listed alongside its reported IC50.

Check out these entries, answers already filled in.
>>> result("CCc1c(F)ccc2cc(O)cc(-c3ncc4c(N5CCC(O)CC5)nc(OCC5(CN6CCC7(CC6)CC(CN6CCN(c8ccc9c(c8)CN([C@H]8CCC(=O)NC8=O)C9=O)CC6)C7)CC5)nc4c3F)c12 [Compound 114]")
"> 200 nM"
>>> result("CCc1c(F)ccc2cc(O)cc(-c3ncc4c(N5CCCC(C)(F)C5)nc(OCC5(CN6CCC7(CC6)CC(CN6CCN(c8ccc9c(c8)CN([C@H]8CCC(=O)NC8=O)C9=O)CC6)C7)CC5)nc4c3F)c12 (stereo partly drawn) [Compound 132]")
"> 200 nM"

# context switch: different molecule, same IC50
response.value for CCc1c(F)ccc2cc(O)cc(-c3ncc4c(N5CCC[C@@](C)(O)C5)nc(OCC5(CN6CCC7(CC6)CC(N6CCN(c8cc(F)c(C9CCC(=O)NC9=O)c(F)c8)CC6)C7)CC5)nc4c3F)c12 (stereo partly drawn) [Compound 50] (field: IC50) = 20 to 200 nM
